# credit: paper PMC11076327

- experiment: Navarixin pharmacokinetics in combination with pembrolizumab
- Assay type: in vivo, human
- recorded-conditions: human, plasma, oral, CRPC; navarixin 100 mg + pembrolizumab 200 mg; Cycle 2 day 1 (steady state); geometric mean (% geometric CV); n=11
- Source text: Primary endpoints were objective response rate (ORR; proportion of patients with confirmed complete or partial response) by RECIST v1.1 as assessed by the investigator and safety based on the occurrence of dose-limiting toxicities (DLTs), adverse events (AEs), and treatment discontinuations because of AEs. […]
property-name: AUC(0-inf) (ng·h/mL)

> print(dat)
                                  structure  experimental.value
1  CC[C@@H](Nc1c(Nc2cccc(C(=O)N(C)C)c2O)c(=O)c1=O)c1ccc(C)o1                1340

* * *

- experiment: Navarixin pharmacokinetics in combination with pembrolizumab
- Format: in vivo, human
- recorded-conditions: human, plasma, oral, MSS CRC; navarixin 100 mg + pembrolizumab 200 mg; Cycle 2 day 1 (steady state); geometric mean (% geometric CV); n=9
property-name: AUC(0-inf) (ng·h/mL)

> print(dat)
                                   compound  experimental.value
1  CC[C@@H](Nc1c(Nc2cccc(C(=O)N(C)C)c2O)c(=O)c1=O)c1ccc(C)o1 [Navarixin]                 954

* * *

- experiment: Navarixin pharmacokinetics in combination with pembrolizumab
- Type: in vivo, human
- recorded-conditions: human, plasma, oral, CRPC; navarixin 100 mg + pembrolizumab 200 mg; Cycle 1 day 1; geometric mean (% geometric CV); n=20
property-name: AUC(0-t)

> print(dat)
                                  structure  experimental.value
1  CC[C@@H](Nc1c(Nc2cccc(C(=O)N(C)C)c2O)c(=O)c1=O)c1ccc(C)o1         853 ng·h/mL

* * *

- experiment: Navarixin pharmacokinetics in combination with pembrolizumab
- Format: in vivo, human
- recorded-conditions: human, plasma, oral, CRPC; navarixin 100 mg + pembrolizumab 200 mg; Cycle 2 day 1 (steady state); geometric mean (% geometric CV); n=17
property-name: AUC(0-t) (ng·h/mL)

> print(dat)
                                   molecule  experimental.value
1  CC[C@@H](Nc1c(Nc2cccc(C(=O)N(C)C)c2O)c(=O)c1=O)c1ccc(C)o1 [Navarixin]                 925

* * *

- experiment: Navarixin pharmacokinetics in combination with pembrolizumab
- Assay type: in vivo, human
- recorded-conditions: human, plasma, oral, CRPC; navarixin 30 mg + pembrolizumab 200 mg; Cycle 2 day 1 (steady state); geometric mean (% geometric CV); n=18
property-name: Cmax (ng/mL)

> print(dat)
                                  structure  quantity.unit  experimental.value
1  CC[C@@H](Nc1c(Nc2cccc(C(=O)N(C)C)c2O)c(=O)c1=O)c1ccc(C)o1          ng/mL                 191

* * *

- experiment: Navarixin pharmacokinetics in combination with pembrolizumab
- Assay type: in vivo, human
- recorded-conditions: human, plasma, oral, NSCLC; navarixin 100 mg + pembrolizumab 200 mg; Cycle 1 day 1; geometric mean (% geometric CV); n=13
property-name: AUC(0-t) (µg·h/mL)

> print(dat)
                                  structure  property.name  experimental.value
1  CC[C@@H](Nc1c(Nc2cccc(C(=O)N(C)C)c2O)c(=O)c1=O)c1ccc(C)o1       AUC(0-t)                1.14

* * *

- experiment: Navarixin pharmacokinetics in combination with pembrolizumab
- Format: in vivo, human
- recorded-conditions: human, plasma, oral, MSS CRC; navarixin 30 mg + pembrolizumab 200 mg; Cycle 2 day 1 (steady state); geometric mean (% geometric CV); n=15
property-name: AUC(0-t) (ng·h/mL)

> print(dat)
                                   compound  experimental.value
1  CC[C@@H](Nc1c(Nc2cccc(C(=O)N(C)C)c2O)c(=O)c1=O)c1ccc(C)o1 [Navarixin]                 443

* * *

- experiment: Navarixin pharmacokinetics in combination with pembrolizumab
- Type: in vivo, human
- recorded-conditions: human, plasma, oral, NSCLC; navarixin 100 mg + pembrolizumab 200 mg; Cycle 2 day 1 (steady state); geometric mean (% geometric CV); n=7
property-name: AUC(0-inf) (ng·h/mL)

> print(dat)
                                  structure  experimental.value
1  CC[C@@H](Nc1c(Nc2cccc(C(=O)N(C)C)c2O)c(=O)c1=O)c1ccc(C)o1                1360

* * *

- experiment: Navarixin pharmacokinetics in combination with pembrolizumab
- Type: in vivo, human
- recorded-conditions: human, plasma, oral, MSS CRC; navarixin 30 mg + pembrolizumab 200 mg; Cycle 1 day 1; geometric mean (% geometric CV); n=17
property-name: AUC(0-inf) (ng·h/mL)

> print(dat)
                                   molecule  property.name  experimental.value
1  CC[C@@H](Nc1c(Nc2cccc(C(=O)N(C)C)c2O)c(=O)c1=O)c1ccc(C)o1 [Navarixin]     AUC(0-inf)                 482

* * *

- experiment: Navarixin pharmacokinetics in combination with pembrolizumab
- Assay type: in vivo, human
- recorded-conditions: human, plasma, oral, CRPC; navarixin 100 mg + pembrolizumab 200 mg; Cycle 2 day 1 (steady state); geometric mean (% geometric CV); n=17
property-name: Cmax (ng/mL)

> print(dat)
                                   molecule  quantity.unit  experimental.value
1  CC[C@@H](Nc1c(Nc2cccc(C(=O)N(C)C)c2O)c(=O)c1=O)c1ccc(C)o1 [Navarixin]          ng/mL                 272

* * *

- experiment: Navarixin pharmacokinetics in combination with pembrolizumab
- Format: in vivo, human
- recorded-conditions: human, plasma, oral, NSCLC; navarixin 30 mg + pembrolizumab 200 mg; Cycle 1 day 1; geometric mean (% geometric CV); n=10
property-name: AUC(0-inf) (ng·h/mL)

> print(dat)
                                  structure  property.name  quantity.unit  experimental.value
1  CC[C@@H](Nc1c(Nc2cccc(C(=O)N(C)C)c2O)c(=O)c1=O)c1ccc(C)o1     AUC(0-inf)        ng·h/mL                 469

* * *

- experiment: Navarixin pharmacokinetics in combination with pembrolizumab
- Format: in vivo, human
- recorded-conditions: male, human, plasma, oral, CRPC; navarixin 30 mg + pembrolizumab 200 mg; Cycle 1 day 1; geometric mean (% geometric CV); n=20
- Excerpt: Primary endpoints were objective response rate (ORR; proportion of patients with confirmed complete or partial response) by RECIST v1.1 as assessed by the investigator and safety based on the occurrence of dose-limiting toxicities (DLTs), adverse events (AEs), and treatment discontinuations because of AEs. […]
property-name: Cmax

> print(dat)
                                  structure  property.name  experimental.value
1  CC[C@@H](Nc1c(Nc2cccc(C(=O)N(C)C)c2O)c(=O)c1=O)c1ccc(C)o1           Cmax           156 ng/mL

* * *

- experiment: Navarixin pharmacokinetics in combination with pembrolizumab
- Type: in vivo, human
- recorded-conditions: human, plasma, oral, NSCLC; navarixin 100 mg + pembrolizumab 200 mg; Cycle 2 day 1 (steady state); geometric mean (% geometric CV); n=11
property-name: Cmax (ng/mL)

> print(dat)
                                   compound  experimental.value
1  CC[C@@H](Nc1c(Nc2cccc(C(=O)N(C)C)c2O)c(=O)c1=O)c1ccc(C)o1 [Navarixin]                 338

* * *

- experiment: Navarixin pharmacokinetics in combination with pembrolizumab
- Assay type: in vivo, human
- recorded-conditions: human, plasma, oral, MSS CRC; navarixin 100 mg + pembrolizumab 200 mg; Cycle 1 day 1; geometric mean (% geometric CV); n=21
property-name: Cmax (ng/mL)

> print(dat)
                                  structure  experimental.value
1  CC[C@@H](Nc1c(Nc2cccc(C(=O)N(C)C)c2O)c(=O)c1=O)c1ccc(C)o1                 354

* * *

- experiment: Navarixin pharmacokinetics in combination with pembrolizumab
- Format: in vivo, human
- recorded-conditions: human, plasma, oral, NSCLC; navarixin 30 mg + pembrolizumab 200 mg; Cycle 2 day 1 (steady state); geometric mean (% geometric CV); n=12
property-name: AUC(0-t)

> print(dat)
                                   compound  experimental.value
1  CC[C@@H](Nc1c(Nc2cccc(C(=O)N(C)C)c2O)c(=O)c1=O)c1ccc(C)o1 [Navarixin]         451 ng·h/mL
